- Tested on: TRKA
- Construct: gene NTRK1
- runConditions: concentration: 1 μM, replicates: in singlicate; n = 1;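 note: KINOMEscan kinase panel screen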
metricName: %Inh
Give the figure together with its unit, number first.

Recorded %Inh, per entry:
INSERT INTO measurements (molecule, metricname, recordedresult) VALUES
  ('C[C@@H]1CCN(C(=O)CO)C[C@@H]1N(C)c1ncnc2[nH]ccc12', '%Inh', '15%'),
  ('Cn1ccc2ncnc(Nc3ccc(Oc4cccc(Cl)c4)c(Cl)c3)c21', '%Inh', '0%'),
  ('O=C(Nc1n[nH]c2nc(-c3ccco3)c(Br)cc12)c1ccc(CN2CCCC2)cc1.O=C(O)[C@H](O)[C@@H](O)C(=O)O', '%Inh', '18%'),
  ('Cc1ccc(NC(=O)c2cccc(C#N)c2)cc1-c1ccc(C(=O)Nc2ccncc2)cc1', '%Inh', '0%'),
  ('Cl.Cl.c1ccc(-c2cc3ccncc3cc2OC2CCNCC2)cc1', '%Inh', '0%'),
  ('COc1ccc(Nc2nccc(N3CCC(NC(=O)c4cccc(NC(C)=O)c4)C3)n2)cc1 (stereo not drawn)', '%Inh', '37%'),
  ('Fc1ccc(-c2ncn(CCCNCc3ccccc3)c2-c2ccncc2)cc1', '%Inh', '38%'),
  ('CC(C)(C)c1ccc(-n2cnc3c(N)ncnc32)cc1', '%Inh', '18%');

Next molecule, %Inh to be filled in.
get_value(item= Cc1ccc(O)cc1Nc1cc(C(F)(F)F)nc2ccc(-c3ccncc3)cc12 , readout=%Inh) returns 0%

* * *

- Test system: PIM2
- runConditions: concentration: 1 μM, replicates: in singlicate; n = 1
metricName: %Inh (%)
Numbers only, in %.

Recorded %Inh, per entry:
INSERT INTO assay_data (molecule, recordedresult) VALUES
  ('Nc1nc(-c2ccccn2)c(-c2ccnc3ccccc23)s1 [GW548057]', 0),
  ('Cn1ccc2ncnc(Nc3ccc(Oc4cccc(Cl)c4)c(Cl)c3)c21', 17),
  ('Cl.Cl.c1ccc(-c2cc3ccncc3cc2OC2CCNCC2)cc1 [GSK1122999]', 0);

get_value(item= CCn1c(-c2ccncc2)nc2cnccc21 [SB-735216] , readout=%Inh) returns 0

* * *

- Tested on: LTK
- runConditions: concentration: 1 μM, replicates: in singlicate; n = 1
metricName: %Inh (%)
Answers are plain numbers, in %.

INSERT INTO results (molecule, recordedresult) VALUES
  ('COc1ccc(-c2oc3ncnc(N)c3c2-c2ccc(OC)cc2)cc1', 0),
  ('COc1ccc(Nc2nccc(N3CCC(NC(=O)Nc4ccc5c(c4)OCO5)C3)n2)cc1 (stereo not shown)', 18),
  ('Fc1ccc(-c2ncn(CCCNCc3ccccc3)c2-c2ccncc2)cc1', 0),
  ('CCn1c(-c2ccncc2)nc2cnccc21', 0),
  ('c1ccc(-c2ccc3c(-c4ccnc(Nc5ccc6c(c5)OCCO6)n4)cnn3n2)cc1', 0),
  ('Nc1nc(-c2ccc3c(N)n[nH]c3c2)cc(N2CCC[C@@H](C(=O)Nc3ccccc3)C2)n1.O=C(O)C(F)(F)F.O=C(O)C(F)(F)F', 15),
  ('CC(C)(C)OC(=O)NC1CCCN(c2cc(-c3ccc4c(N)n[nH]c4c3)nc(N)n2)C1 (stereo not shown)', 0),
  ('Fc1cccc(COc2ccc(Nc3ncnc4nn5ccccc5c34)cc2Cl)c1', 0),
  ('Nc1nc(-c2cccnc2)c(-c2ccnc3ccccc23)s1', 0),
  ('Cc1cc(N2CCC(NS(=O)(=O)c3ccc(F)cc3)CC2)nc(Nc2cccc(C#N)c2)n1.O=C(O)C(F)(F)F', 5);

Below is a list of molecules. For each, state its recorded %Inh.
1. CSc1nn2c(=O)cc(N3CCOCC3)nc2n1Cc1cccc(Cl)c1Cl
2. CCc1nc(-c2cccc(C)c2)c(-c2ccnc(NC(=O)c3ccccc3)c2)s1

Reply:
1. 4
2. 10

Below is a list of molecules. For each, state its recorded %Inh.
1. CC(=O)Nc1n[nH]c2ncc(-c3ccccc3)cc12
2. COc1ccc(NC(=O)Nc2ccc(C)c(-c3ccc(C(=O)Nc4ccncc4)cc3)c2)cc1
3. O=C(CCO)NCCn1ccc2ncnc(Nc3ccc(Oc4cccc(C(F)(F)F)c4)c(Cl)c3)c21
4. Nc1nc(-c2ccccn2)c(-c2ccnc3ccccc23)s1
5. Fc1ccc(Nc2nccc(-c3c(-c4ccc(Cl)cc4)nn4ncccc34)n2)cc1F
6. C[C@@H]1CCN(C(=O)CO)C[C@@H]1N(C)c1ncnc2[nH]ccc12
7. CS(=O)(=O)CCNCc1ccc(-c2ccc3ncnc(Nc4ccc(OCc5ccccc5)c(Cl)c4)c3c2)o1.Cl

Reply:
[5, 7, 0, 0, 6, 27, 25]
